target: recombinant human plasminogen activator inhibitor-1 (PAI-1) (Homo sapiens, UniProt P05121); assay: Primary Screen for the PAI-1 Inhibition (chromogenic tPA assay); settings: footnote b: determined by a modification of the Primary Screen for PAI-1 Inhibition
Sequence (P05121 24-402): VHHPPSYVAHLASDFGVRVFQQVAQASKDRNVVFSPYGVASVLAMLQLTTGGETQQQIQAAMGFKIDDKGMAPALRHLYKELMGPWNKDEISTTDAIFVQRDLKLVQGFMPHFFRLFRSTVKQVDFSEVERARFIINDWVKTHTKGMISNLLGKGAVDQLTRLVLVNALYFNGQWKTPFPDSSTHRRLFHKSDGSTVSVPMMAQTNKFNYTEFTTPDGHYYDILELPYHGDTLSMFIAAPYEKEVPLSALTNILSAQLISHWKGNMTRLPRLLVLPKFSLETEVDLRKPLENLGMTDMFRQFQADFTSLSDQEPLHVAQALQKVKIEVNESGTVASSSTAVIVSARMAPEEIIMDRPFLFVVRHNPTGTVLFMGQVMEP
Please assign no (0) whenever IC50 is at or above 10 µM, and yes (1) whenever it is below.

INSERT INTO assay_data (compound, assigned_category) VALUES
  ('CCCCC(=O)c1c(-c2ccc3c(Br)c(OCC(=O)O)ccc3c2)oc2ccc(Cl)cc12', 'no (0)'),
  ('CC(C)(C)CC(=O)c1c(-c2ccc3c(Br)c(OCC(=O)O)ccc3c2)oc2ccccc12', 'no (0)'),
  ('CCCCCc1c(-c2ccc3cc(OCC(=O)O)ccc3c2)oc2ccccc12', 'yes (1)'),
  ('CCCCC(=O)c1c(-c2ccc3c(Br)c(OC(Cc4ccccc4)C(=O)O)ccc3c2)oc2ccccc12 (stereo not shown)', 'yes (1)'),
  ('CCCCC(=O)c1c(-c2ccc3c(Br)c(OCc4nnn[nH]4)ccc3c2)oc2ccccc12', 'yes (1)'),
  ('CCCCC(=O)c1c(-c2ccc3cc(OCC(=O)O)ccc3c2)oc2ccc(Cl)cc12', 'no (0)'),
  ('CCCCC(=O)c1c(-c2ccc3cc(OCc4nnn[nH]4)ccc3c2)oc2ccccc12', 'no (0)'),
  ('CCCCC(=O)c1c(-c2ccc3c(-c4ccc(C(F)(F)F)cc4)c(OCc4nnn[nH]4)ccc3c2)oc2ccccc12', 'yes (1)'),
  ('CCCCCc1c(-c2ccc3c(Br)c(OCc4nn[nH]n4)ccc3c2)oc2ccccc12', 'yes (1)');

Could you now consider this next compound?
Lookup: # TODO verify IC50 < 10 µM strictly for this compound: CC(C)CC(=O)c1c(-c2ccc3c(Br)c(OCC(=O)O)ccc3c2)oc2ccccc12
Found: no (0)

* * *

Where a name gives a salt, the structure may show the parent alone.
Record: IC50 reported on human PAI-1 (Homo sapiens).
Sequence (P05121 24-402): as above
# value in µM; strip the unit string

Here's what some known entries look like.
INSERT INTO results (molecule, uom, recorded_value) VALUES
  ('CCCCC(=O)c1c(-c2ccc3c(-c4ccccc4)c(OCc4nnn[nH]4)ccc3c2)oc2ccccc12', 'µM', 10),
  ('CCCCC(=O)c1c(-c2ccc3c(-c4ccccc4)c(OCC(=O)[O-])ccc3c2)oc2ccccc12.[Na+] [Example 14, sodium salt]', 'µM', 2.7),
  ('CCCCC(=O)c1c(-c2ccc3c(C)c(OC(Cc4ccccc4)C(=O)[O-])ccc3c2)oc2ccccc12.[Na+] (centres unmarked) [Example 23, sodium salt]', 'µM', 12.4),
  ('CCCCC(=O)c1c(-c2ccc3c(C)c(OCC(=O)O)ccc3c2)oc2ccccc12', 'µM', 13.3);

Lookup: Enter measured IC50, system human PAI-1 (Homo sapiens), for the molecule shown: CCCCC(=O)c1c(-c2ccc3c(-c4ccc(C(F)(F)F)cc4)c(OCC(=O)O)ccc3c2)oc2ccccc12 [Example 15, acetic acid, sodium salt]
Found: 8.2

* * *

// inhibition at 25 µM lookup, one value per entry
target: recombinant human plasminogen activator inhibitor-1 (PAI-1) (Homo sapiens); construct: purchased Molecular Innovations, Royal Oak, Mich; experiment: Primary Screen for the PAI-1 Inhibition (chromogenic tPA assay); assay type: biochemical; conditions: 25 μM test compound
Reply numerically in %, unit not repeated.

Some entries whose results are on file:
INSERT INTO assay_data (compound_smiles, recorded_value) VALUES
  ('CCCCC(=O)c1c(-c2ccc3cc(OCc4nnn[nH]4)ccc3c2)oc2ccc(Cl)cc12', 39),
  ('O=C(c1ccccc1)c1c(-c2ccc3c(Br)c(OCc4nnn[nH]4)ccc3c2)oc2ccccc12', 35),
  ('CCCCCc1c(-c2ccc3c(C)c(OCc4nnn[nH]4)ccc3c2)oc2ccccc12', 31),
  ('CCCCC(=O)c1c(-c2ccc3cc(OCC(=O)O)ccc3c2)oc2ccccc12', 43);

With those in mind, consider the next compound.
Lookup: Return the recorded inhibition at 25 µM value; entry: CCCCC(=O)c1c(-c2ccc3c(Br)c(OCc4nnn[nH]4)ccc3c2)oc2ccc(Cl)cc12
Found: 46

* * *

biological target: recombinant human plasminogen activator inhibitor-1 (PAI-1) (Homo sapiens, UniProt P05121); construct: purchased Molecular Innovations, Royal Oak, Mich; assay: Primary Screen for the PAI-1 Inhibition (chromogenic tPA assay); format: biochemical; conditions: 25 μM test compound
parameter-measured: inhibition at 25 µM (%)
Give just the numeric value; % need not be written.

// below: answered compounds
INSERT INTO results (compound, experimental_target, recorded_value) VALUES
  ('CCCCC(=O)c1c(-c2ccc3c(Br)c(OCC(=O)O)ccc3c2)oc2ccccc12', 'recombinant human plasminogen activator inhibitor-1 (PAI-1) (Homo sapiens, UniProt P05121)', 47),
  ('O=C(O)COc1ccc2cc(-c3oc4ccccc4c3C(=O)c3ccccc3)ccc2c1', 'recombinant human plasminogen activator inhibitor-1 (PAI-1) (Homo sapiens, UniProt P05121)', 49),
  ('O=C(O)COc1ccc2cc(-c3oc4ccccc4c3CCC3CCCC3)ccc2c1Br', 'recombinant human plasminogen activator inhibitor-1 (PAI-1) (Homo sapiens, UniProt P05121)', 24);

Turning now to a further record.
Lookup: Determine from records and report inhibition at 25 µM for O=C(O)C(Cc1ccccc1)Oc1ccc2cc(-c3oc4ccccc4c3Br)ccc2c1Br (stereo not shown)
Found: 56

* * *

List of melting point values.

INSERT INTO results (compound, parameter_measured, recorded_value) VALUES
  ('CCCCC(=O)c1c(-c2ccc3c(-c4ccc(C(F)(F)F)cc4)c(OCc4nnn[nH]4)ccc3c2)oc2ccccc12', 'melting point', '189 to 191 °C'),
  ('O=C(c1ccccc1)c1c(-c2ccc3c(Br)c(OCc4nnn[nH]4)ccc3c2)oc2ccccc12', 'melting point', '> 183 °C (dec.)'),
  ('CCCCC(=O)c1c(-c2ccc3c(Cl)c(OCc4nnn[nH]4)ccc3c2)oc2ccccc12', 'melting point', '168 to 169 °C'),
  ('CCCCC(=O)c1c(-c2ccc3c(C)c(OC(Cc4ccccc4)C(=O)[O-])ccc3c2)oc2ccccc12.[Na+] (centres unmarked)', 'melting point', '221 to 222 °C'),
  ('CCCCC(=O)c1c(-c2ccc3c(C)c(OCc4nnn[nH]4)ccc3c2)oc2ccccc12', 'melting point', '162 to 164 °C');

Lookup: Tell me measured melting point for CCCCCc1c(-c2ccc3c(C)c(OCc4nnn[nH]4)ccc3c2)oc2ccccc12 please.
Found: 169 to 171 °C (dec.)

Lookup: Specify measured melting point for CCCCC(=O)c1c(-c2ccc3c(Br)c(OCC(=O)O)ccc3c2)oc2ccccc12 .
Found: 146 to 147 °C

Lookup: Kindly indicate its recorded melting point. Item: O=C(O)COc1ccc2cc(-c3oc4ccccc4c3C(=O)c3ccccc3)ccc2c1
Found: 178 to 181 °C

* * *

parameter-measured: melting point

INSERT INTO measurements (molecule, recorded_value) VALUES
  ('CCCCC(=O)c1c(-c2ccc3cc(OC(Cc4ccccc4)C(=O)O)ccc3c2)oc2ccccc12 (stereo not drawn)', '144 to 145 °C'),
  ('CCCCC(=O)c1c(-c2ccc3c(Cl)c(OCC(=O)O)ccc3c2)oc2ccccc12', '142 to 143 °C'),
  ('CCCCC(=O)c1c(-c2ccc3c(-c4ccccc4)c(OCc4nnn[nH]4)ccc3c2)oc2ccccc12', '160 to 164 °C'),
  ('O=C(CC1CCCC1)c1c(-c2ccc3c(Br)c(OCc4nnn[nH]4)ccc3c2)oc2ccccc12', '186 to 187 °C'),
  ('CCCCCc1c(-c2ccc3c(Br)c(OCC(=O)O)ccc3c2)oc2ccccc12', '159 to 161 °C');

Lookup: Dear colleague, please send me the reported melting point for CC(C)CC(=O)c1c(-c2ccc3c(Br)c(OCc4nnn[nH]4)ccc3c2)oc2ccccc12 when you can.
Found: 176 to 177 °C

Lookup: Write down melting point measured for item CC(C)(C)CC(=O)c1c(-c2ccc3c(Br)c(OCC(=O)O)ccc3c2)oc2ccccc12
Found: 151 to 153 °C

Lookup: Look up melting point of CCCCC(=O)c1c(-c2ccc3cc(OCC(=O)O)ccc3c2)oc2ccccc12 and report it.
Found: 130 to 132 °C

* * *

In this section, each of the compounds is paired with its reported melting point.

INSERT INTO measurements (compound, recorded_value) VALUES
  ('O=C(O)COc1ccc2cc(-c3oc4ccccc4c3CCC3CCCC3)ccc2c1Br', '155 to 156 °C');

Lookup: Give reported melting point value for O=C(O)C(Cc1ccccc1)Oc1ccc2cc(-c3oc4ccccc4c3Br)ccc2c1Br (stereo not shown)
Found: 206 to 209 °C

Lookup: State its melting point for this compound: CCCCC(=O)c1c(-c2ccc3c(-c4ccccc4)c(OCC(=O)[O-])ccc3c2)oc2ccccc12.[Na+]
Found: 272 to 273 °C (dec.)

Lookup: Give melting point for the following compound: CCCCC(=O)c1c(-c2ccc3cc(OCC(=O)O)ccc3c2)oc2ccc(Cl)cc12
Found: 158 to 160 °C

Lookup: Look up and report measured melting point for this entry: CCCCC(=O)c1c(-c2ccc3cc(OCc4nnn[nH]4)ccc3c2)oc2ccccc12
Found: 150 to 151 °C

Lookup: Quick one: give measured melting point for CCCCC(=O)c1c(-c2ccc3c(Br)c(OCc4nnn[nH]4)ccc3c2)oc2ccc(Cl)cc12
Found: 133 to 135 °C

Lookup: Tell me measured melting point for CCCCC(=O)c1c(-c2ccc3c(Br)c(OCC(=O)O)ccc3c2)oc2ccc(Cl)cc12 please.
Found: 130 to 132 °C

Lookup: Give melting point for the following compound: Brc1c(OCc2nnn[nH]2)ccc2cc(-c3oc4ccccc4c3CCC3CCCC3)ccc12
Found: 192 to 194 °C

Lookup: Provide melting point value for the following compound: CCCCC(=O)c1c(-c2ccc3c(Br)c(OC(Cc4ccccc4)C(=O)O)ccc3c2)oc2ccccc12 (stereo not shown)
Found: 115 to 117 °C

Lookup: Identify the reported melting point for the following entry. CCCCCc1c(-c2ccc3cc(OCC(=O)O)ccc3c2)oc2ccccc12
Found: 163 to 165 °C

Reference source: patent US6599925B2
